target: Muscarinic acetylcholine receptor M1 (Homo sapiens) (UniProt P11229); test: Cholinergic receptor muscarinic 1 (CHRM1) small molecule antagonists, cell-based qHTS assay (AID 1963588); conditions: CHRM1-CHO antagonist mode, calcium flux fluorescence; series mostly up to 61.5 µM; note: nearly all actives have a fitted effect of over 40% in size
Sequence (P11229 whole entry, looked up): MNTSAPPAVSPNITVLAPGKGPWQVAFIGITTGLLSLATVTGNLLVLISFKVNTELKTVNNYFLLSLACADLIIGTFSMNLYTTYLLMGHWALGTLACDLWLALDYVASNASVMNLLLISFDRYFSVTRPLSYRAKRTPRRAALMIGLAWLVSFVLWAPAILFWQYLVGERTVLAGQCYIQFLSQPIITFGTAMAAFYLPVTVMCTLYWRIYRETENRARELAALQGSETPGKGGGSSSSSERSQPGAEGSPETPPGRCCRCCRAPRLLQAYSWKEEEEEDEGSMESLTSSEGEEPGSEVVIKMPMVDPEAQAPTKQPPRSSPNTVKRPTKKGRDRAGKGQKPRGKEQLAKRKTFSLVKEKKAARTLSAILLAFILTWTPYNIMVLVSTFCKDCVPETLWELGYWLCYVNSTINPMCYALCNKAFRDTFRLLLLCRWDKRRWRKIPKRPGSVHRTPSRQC
Results filed as inconclusive are left out. Activity calls are given as the source filed them. Calls come from the whole dose curve.
Please state which outcome applies, choosing from T = active, F = inactive

Q. What did the test return for CCCCCSCCCCC ?
A. F

Q. Returns: the outcome recorded for CCCCOC(=O)c1ccccc1C(=O)OCC(CC)CCCC (configuration not stated) in this assay.
A. F

Q. Hello, I am checking results. What call was entered for C[C@@H]1C[C@H]2[C@@H]3CCC4=CC(=O)C=C[C@]4(C)[C@@]3(Cl)[C@@H](O)C[C@]2(C)[C@@]1(OC(=O)c1ccco1)C(=O)CCl ?
A. F

Q. Hello, I am checking results. What call was entered for COC(=O)C1=C(C)NC(C)=C(C(=O)OC(C)C)C1c1cccc2nonc12 (configuration not stated) ?
A. F

Q. Recorded test outcome, item Cc1cc(O)c(C(C)C)cc1Cl
A. F

Q. Would you mind telling me which call this test gave CC(C)(C)CCCCCCOC(=O)c1ccccc1C(=O)OCCCCCCC(C)(C)C ?
A. F
